# ASSAY_METHOD_TEXT: yeast display, Sf9 membrane polyspecificity reagent, FACS + sequencing; frameworks hold sequencing errors

- MONOMER_SEQUENCE: "QFQLVESGGGLVQAGGSLRLSCAASGRTFGVYAMGWYRQAPGKERELVAAIRWSGGGTYYADSVKGRFTISRDNAKNTVYLQMNSLKPEDTAVYYCAADSLLVLFDYWGQGTQVTVSA"
  polyreactivity (PSR sort gate): "low polyreactivity"
- MONOMER_SEQUENCE: "QVQLVESGGGLVQAGGSLRLSCAASGRTFGRNAMGWYRQAPGERELVAVISRGGSTYYADSVKGRFTISRDNAKNTVYLQMNSLKPEDTAVYYCNADTVYTRNATYDYWGQCTQVTVSS"
  polyreactivity (PSR sort gate): "low polyreactivity"

###

# ASSAY_METHOD_TEXT: yeast display, Sf9 membrane polyspecificity reagent, FACS + sequencing; frameworks hold sequencing errors
MEASURED_ATTRIBUTE: polyreactivity (PSR sort gate)

- MONOMER_SEQUENCE: "QVQLVESGGGLVQAGGSLRLSSAASGRTFQDNAMGSYRQAPGKERELVAAISWRGGSTNYADSVKGRFTISRDNAKNTVYLQMNSLIPEDTAVYYCNRDPRKYGKLDYWGQGTQVTVSS"
  EXPERIMENTAL_RESULT: "low polyreactivity"
- MONOMER_SEQUENCE: "QVQLVESGGGLVQAGGSLRLSCAASGRTFQNNAMGWYRQAPGKERELVAAISRSGASTYYADSVKGRFTISRDNAKNTVYLQMNSLKPEATAVYYCAAVTKLGYPPVNHLEDDYWGQGTQVTVSS"
  EXPERIMENTAL_RESULT: "low polyreactivity"

###

# ASSAY_METHOD_TEXT: yeast display, Sf9 membrane polyspecificity reagent, FACS + sequencing; frameworks hold sequencing errors

- MONOMER_SEQUENCE: "QVQLVESGGGLVQAGGSLRLSCAASGFTFSWYPMGWYRQAPGKERELVAAITSGGGTNYADSVKGRFTISRDNAKNTVYLQMNSLIPEDTAVYYCAARGRWFYYLDDYWGQGTQVTVSS"
  polyreactivity (PSR sort gate): "low polyreactivity"
- MONOMER_SEQUENCE: "QVQLVESGGGLVQAGGSLRLSCAASGSIFAWYGMGWYRPAPGKERELVAAISTAGSTNYADSVKGRFTISRDNAKNTVYLQMNSLKPEDTAVYYCAKKSSWYYPERFDYWGQGTQVTVSS"
  polyreactivity (PSR sort gate): "low polyreactivity"
- MONOMER_SEQUENCE: "HVQLVESGGGLVQEGGSLRLSCAASGSILALYAMGWDRQAPGKERELVAAISSGDSTSYADSVKGRFTISRDNAKNTVYLQMNSLKPEDTAVYYCAADRPIYPYPGKGFRYDYWGQGTQVTVSS"
  polyreactivity (PSR sort gate): "low polyreactivity"
- MONOMER_SEQUENCE: "QVQLVESGGGLVQAGGSLRLSCAASGLIFYVYAMGWYRQAPGKERELVASITWSGGRTYYADSVKGRFTISRDNAKNTVYLQMNSLKPEDTAVYFCAKDWWGGPPNVYHSEYEYWGQGTQVTVSS"
  polyreactivity (PSR sort gate): "low polyreactivity"
- MONOMER_SEQUENCE: "QVQLVESRGGLVQAGGSLRLSCAASVRTFQKNTMGWYRQAPGKERELVAAIDYSATSTYYADSVKGRFTISRDNAKNTVYLQMNSLKPEDTAVYYCAARWSYPRWEFDYWGQGTQVTVSS"
  polyreactivity (PSR sort gate): "high polyreactivity"
- MONOMER_SEQUENCE: "QVQLVESGGGLVQAGGSLRLSCAASGSSLDYYAMGWSRQAPGKERDLLAAITWSGGRTSYADSVTGRFTISRDNAKNTVYLQMNSLKPEDTAVYYGAAESFLYLLDRASGWQYEYWGQGTQVSVSS"
  polyreactivity (PSR sort gate): "low polyreactivity"
- MONOMER_SEQUENCE: "QVQIVESGGGLVQAGGSLRLSCAASGRIFRNTMGWYIQAPGKERDLVAAITDTTDSTYYADSVKGRFTISRDNAKNTVYLQMNSLKPEDSAVYYCAARYGGYVNRPYYYWGHGTQVTVSS"
  polyreactivity (PSR sort gate): "low polyreactivity"
- MONOMER_SEQUENCE: "QVQLVESGGGLVQAGGSLRLSCADTGRTFSRNSMGWYIQAPGKERELVATITRGTITNYADSVKGRFTISRDNAMNTVYLQINSRKPEDTAVYYCNARTLFFPARNRCELSDYWGQGTQVTVSS"
  polyreactivity (PSR sort gate): "low polyreactivity"
- MONOMER_SEQUENCE: "QVQLVESAGGLVQAGGSLRLSCAASGGIFVFYAMGWYRQAPGKERELVAAITYRGGSTSYADSVKGRFTISRDHAKNTVYLQLNSVKPEDTAVYYCAAAFYAKGQRYGYWGHGTQVTVSS"
  polyreactivity (PSR sort gate): "high polyreactivity"
- MONOMER_SEQUENCE: "QVQLVESGGGLVQAGGSLRLSCAASGFIFADYAMGWYRQAPGKERELVAAITRGGITYYADSVKGRFTISRDNAKNTVYLQMNSLKPEDTAVYYCAVDPSPRSYYNYYWGQGTQVTVSS"
  polyreactivity (PSR sort gate): "high polyreactivity"
- MONOMER_SEQUENCE: "KVQLVESGGRVVQAGGSLRLSCAASGSIFGYNDMGWYRPAPGKERELVATITWGGGRTRYADSVKGRFTISRDNAKKTVYLQMNSLKPEETAVYYCARDRGKITPYDYWGQGTQVTVSS"
  polyreactivity (PSR sort gate): "low polyreactivity"
- MONOMER_SEQUENCE: "QVQLVESGGGLVQAGGSLRLSCAASGSIFGYNAMGWYRQAPGKEREFVAAINTSGGSTYYADSVKGSFTISRDNAKNTVYLQMYSLKPEATAVYYCAARAYSWISARYYWGLGTQVTVSS"
  polyreactivity (PSR sort gate): "high polyreactivity"
- MONOMER_SEQUENCE: "QVQLVESGGGLVQAGGRLRLRCAASGSTFGYYAMGWYRQAPGKERELVAAISRSGGITYYADSVKGRFTISRDNAKNTVYLQMNSLKPEDTAVYYCAADRNRYTGEDDSWGEGTQVTVSS"
  polyreactivity (PSR sort gate): "low polyreactivity"
- MONOMER_SEQUENCE: "QVQLVESGGGLVQAGGSLRLSCAASGSIFSKYAMGWYRQAPGKERELVAAITSSGGSTYYADSVKGRFTISRDNAKNTVYLQMNSLKPEDNAVYYCAAGGRSVRYNYWGQGTQVTVSS"
  polyreactivity (PSR sort gate): "high polyreactivity"
- MONOMER_SEQUENCE: "QVQLVESGGGLVQAGGSLRLSCAASARIFYPYAMGWYRQAPGKERELVAAINWIGGSTYYADSVKGRFTISRDNAKYTVYLQMNSLKPEDSAVYYCAASYWHRRYDYWGQGTQVTLSS"
  polyreactivity (PSR sort gate): "high polyreactivity"
- MONOMER_SEQUENCE: "QVQLVESGGGLVQAGGSLRLSCAASGLILDGNAMGWYRTAPGKERELVAAITRSGGRTYYADSVKGRFTISRDNAKNTVYFQMNSLKPEDTAVYYCAALGWSGRYRYDYWGQGTQVTVSS"
  polyreactivity (PSR sort gate): "high polyreactivity"
- MONOMER_SEQUENCE: "QVQLVESGGGLVQAGGSLRLSCAASGRIFYGNTMGWYRQAPGKERELVAAITWRGGSTYYADSVKGRFTISRDNAKNTVYLQMNSLKPEVTAVYYCAAVSYRGRGYWGQGTQVTVSS"
  polyreactivity (PSR sort gate): "high polyreactivity"
- MONOMER_SEQUENCE: "QVQLVESGGGLVQAGGSLRLSCAASGFIFYYYAMGWYRQAPGKVRELVAAISTDGGSTYYADSVKGRFTISRDNAKNTVYLQMNSLKPEDTADYYCNAPYYGWGYWPLEYIRYEYWGQGTQVTVSS"
  polyreactivity (PSR sort gate): "low polyreactivity"
- MONOMER_SEQUENCE: "QVQLVESGGGLVQAGGSLRLSCSASGSTFDVYAMGRYRQAPGKERELVAAISRSGGSTYYADSVKGRFTISRDNAKNTVYLQMNSLKPEDTAVYYCAAEVGIVDYDYWGQGTQVTVSS"
  polyreactivity (PSR sort gate): "low polyreactivity"
- MONOMER_SEQUENCE: "QVQLVESGGGLVQAGGSLSLSCAASGSIFRHNVMGWYIPAPGKERELVAAISGGGGRTYYADSVKGRFTISRDNAKNTDYLQMKSLKPEDTAVYYCYAYVGLSEGDYWGQGTHVTVSS"
  polyreactivity (PSR sort gate): "high polyreactivity"
- MONOMER_SEQUENCE: "QVQVVDSGGGLVQAGGSLRLSCAASGSIFYVYAMGWYRQAPGKVWEFVAAIRWFSGSTYYADSVKWRYTISRDNAKNTVYLQMNSLKPEDTAVYYCAARKYKQGRFKYDYWGQGTQVTVSS"
  polyreactivity (PSR sort gate): "high polyreactivity"

The origin of these recorded values is the nanobody polyreactivity screen of Harvey et al. (2022).
